Target: CAMK4A (Homo sapiens, UniProt Q16566)
Construct: purchased in-house DSF kinase panel (SGC-style construct names; the trailing letter is the construct ID)
Sequence (Q16566 1-473): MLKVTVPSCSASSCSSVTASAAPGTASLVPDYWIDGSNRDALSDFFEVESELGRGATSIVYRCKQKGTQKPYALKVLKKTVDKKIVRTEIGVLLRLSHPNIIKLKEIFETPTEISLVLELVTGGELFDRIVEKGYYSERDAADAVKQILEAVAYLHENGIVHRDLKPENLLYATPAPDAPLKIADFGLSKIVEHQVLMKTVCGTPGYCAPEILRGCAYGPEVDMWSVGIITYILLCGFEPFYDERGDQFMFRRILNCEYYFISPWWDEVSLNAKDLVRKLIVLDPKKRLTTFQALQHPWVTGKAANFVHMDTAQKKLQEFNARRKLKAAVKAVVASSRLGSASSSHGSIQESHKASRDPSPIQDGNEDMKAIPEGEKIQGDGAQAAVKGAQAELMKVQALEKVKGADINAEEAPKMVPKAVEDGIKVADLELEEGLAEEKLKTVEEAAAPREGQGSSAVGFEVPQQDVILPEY
Experiment: DSF Tm panel
Format: binding
Details: 10 μM compound
Method: The synthesized urea-based derivatives were evaluated in a panel of kinases by differential scanning fluorescence (DSF) to investigate their selectivity profile. […] This was also reflected in the overall low selectivity score (S) throughout the series, which is determined by the ratio between the number of kinases that are stabilized above 5 °C and the total number of kinases tested (Figure ). […]
measurementName: ΔTm at 10 µM (°C)
Write down the numeric answer in °C and omit the unit.

Input O=C(NCc1cccc(Cl)c1)Nc1ccc2cc1OCCOCCNc1ccn3ncc-2c3n1 [compound 18] . Output ΔTm at 10 µM: 1.3

Input O=C(NCc1ccccc1C(F)(F)F)Nc1ccc2cc1OCCOCCNc1ccn3ncc-2c3n1 [compound 27] . Output ΔTm at 10 µM: 1.2

Input COc1ccccc1CNC(=O)Nc1ccc2cc1OCCOCCNc1ccn3ncc-2c3n1 [compound 29] . Output ΔTm at 10 µM: 0.6

Input O=C(NCc1ccc(Cl)cc1F)Nc1ccc2cc1OCCOCCNc1ccn3ncc-2c3n1 [compound 21] . Output ΔTm at 10 µM: 0.9

* * *

Biological target: ULK1A (Homo sapiens, UniProt O75385)
Construct: purchased in-house DSF kinase panel (SGC-style construct names; the trailing letter is the construct ID)
Sequence (O75385 1-283): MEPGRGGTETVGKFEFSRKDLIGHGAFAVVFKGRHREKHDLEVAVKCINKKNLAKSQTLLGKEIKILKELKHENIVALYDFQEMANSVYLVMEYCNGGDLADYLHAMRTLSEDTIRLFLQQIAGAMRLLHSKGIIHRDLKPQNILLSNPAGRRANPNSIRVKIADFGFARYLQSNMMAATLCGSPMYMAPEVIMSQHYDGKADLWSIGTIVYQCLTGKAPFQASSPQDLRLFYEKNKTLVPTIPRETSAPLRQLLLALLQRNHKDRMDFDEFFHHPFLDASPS
Experiment: DSF Tm panel
Format: binding
Settings: 10 μM compound
measurementName: ΔTm at 10 µM (°C)
Write down the numeric answer in °C and omit the unit.

Input "COc1ccccc1CNC(=O)Nc1ccc2cc1OCCOCCNc1ccn3ncc-2c3n1" . Output ΔTm at 10 µM: 0.4

Input "COc1cccc(CNC(=O)Nc2ccc3cc2OCCOCCNc2ccn4ncc-3c4n2)c1" . Output ΔTm at 10 µM: 0.5

Input "O=C(NCc1ccc(Cl)cc1Cl)Nc1ccc2cc1OCCOCCNc1ccn3ncc-2c3n1" . Output ΔTm at 10 µM: 0.6

Input "O=C(NCc1ccccc1)Nc1ccc2cc1OCCOCCNc1ccn3ncc-2c3n1" . Output ΔTm at 10 µM: 0.6

Input "Cc1cc(Cl)ccc1CNC(=O)Nc1ccc2cc1OCCOCCNc1ccn3ncc-2c3n1" . Output ΔTm at 10 µM: 0.3

Input "CN1CCN(C(=O)Nc2ccc3cc2OCCOCCNc2ccn4ncc-3c4n2)CC1" . Output ΔTm at 10 µM: 0.2

Input "O=C(NCc1ccccc1C(F)(F)F)Nc1ccc2cc1OCCOCCNc1ccn3ncc-2c3n1" . Output ΔTm at 10 µM: 0.4

Input "O=C(NCc1ccc(C(F)(F)F)cc1)Nc1ccc2cc1OCCOCCNc1ccn3ncc-2c3n1" . Output ΔTm at 10 µM: 0.6

Input "Cc1ccc(F)cc1CNC(=O)Nc1ccc2cc1OCCOCCNc1ccn3ncc-2c3n1" . Output ΔTm at 10 µM: 0.1

Input "Cc1cc(Br)ccc1CNC(=O)Nc1ccc2cc1OCCOCCNc1ccn3ncc-2c3n1" . Output ΔTm at 10 µM: 0

Input "O=C(NCc1ccccc1Cl)Nc1ccc2cc1OCCOCCNc1ccn3ncc-2c3n1" . Output ΔTm at 10 µM: 0.3

Source of measurements: paper PMC12621043
